Target: mutant CFTR (Homo sapiens, UniProt P13569, DEL508-508)
Construct: expressed in transfected cells
Sequence (P13569 with tags, fused parts or gaps DEL508-508): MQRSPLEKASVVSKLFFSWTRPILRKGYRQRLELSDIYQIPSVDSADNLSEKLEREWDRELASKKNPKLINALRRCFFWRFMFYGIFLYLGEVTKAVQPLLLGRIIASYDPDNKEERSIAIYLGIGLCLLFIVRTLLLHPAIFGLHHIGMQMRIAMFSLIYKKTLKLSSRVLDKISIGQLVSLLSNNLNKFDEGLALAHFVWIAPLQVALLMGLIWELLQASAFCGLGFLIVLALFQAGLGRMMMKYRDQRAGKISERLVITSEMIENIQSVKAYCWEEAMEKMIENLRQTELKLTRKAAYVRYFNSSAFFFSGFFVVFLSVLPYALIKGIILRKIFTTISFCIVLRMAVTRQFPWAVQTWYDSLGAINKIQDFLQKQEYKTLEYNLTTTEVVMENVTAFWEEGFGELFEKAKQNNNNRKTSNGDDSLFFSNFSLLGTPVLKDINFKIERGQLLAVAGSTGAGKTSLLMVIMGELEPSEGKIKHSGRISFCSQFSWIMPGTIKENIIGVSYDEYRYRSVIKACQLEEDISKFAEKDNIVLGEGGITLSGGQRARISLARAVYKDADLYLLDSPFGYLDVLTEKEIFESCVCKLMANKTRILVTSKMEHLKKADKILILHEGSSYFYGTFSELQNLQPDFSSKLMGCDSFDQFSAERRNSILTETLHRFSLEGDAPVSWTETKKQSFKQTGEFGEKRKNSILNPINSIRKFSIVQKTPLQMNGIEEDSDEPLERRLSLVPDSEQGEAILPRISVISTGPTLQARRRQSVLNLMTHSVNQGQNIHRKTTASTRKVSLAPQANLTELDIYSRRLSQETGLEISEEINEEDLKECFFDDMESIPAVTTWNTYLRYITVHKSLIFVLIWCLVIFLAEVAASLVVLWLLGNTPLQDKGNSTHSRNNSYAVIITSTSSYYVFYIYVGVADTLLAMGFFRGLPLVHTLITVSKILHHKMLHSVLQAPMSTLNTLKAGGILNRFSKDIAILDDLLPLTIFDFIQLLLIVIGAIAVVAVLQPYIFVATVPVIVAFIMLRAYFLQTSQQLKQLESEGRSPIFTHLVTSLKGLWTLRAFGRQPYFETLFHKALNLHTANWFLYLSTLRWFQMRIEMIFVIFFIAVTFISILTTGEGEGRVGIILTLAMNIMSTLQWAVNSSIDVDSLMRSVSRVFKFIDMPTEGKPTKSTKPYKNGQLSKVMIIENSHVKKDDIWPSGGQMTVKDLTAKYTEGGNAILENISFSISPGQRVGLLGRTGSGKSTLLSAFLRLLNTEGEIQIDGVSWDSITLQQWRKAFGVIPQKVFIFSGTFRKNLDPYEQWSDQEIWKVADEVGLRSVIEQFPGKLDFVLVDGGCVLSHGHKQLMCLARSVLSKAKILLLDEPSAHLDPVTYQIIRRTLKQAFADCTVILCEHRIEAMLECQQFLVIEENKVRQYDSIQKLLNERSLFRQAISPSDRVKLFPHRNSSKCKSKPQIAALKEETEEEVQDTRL
Test: Fluorescence (HS-YFP) assay for CFTR activity, corrector assay
Assay type: cell-based
Settings: CFBE41o- and FRT cells with stable expression of mutant CFTR, read-out: activity (EC50)
pEC50: −log10 of the molar value.
measured metric: pEC50

compound	recorded result
CN(C(=O)c1cccc(-n2nc(C(F)(F)F)c3c2C(Oc2ccc(C(=O)O)cc2)CCC3)c1)c1cnc2c(c1)OCC2 (racemic) [Compound 259]	> 6.00
Cc1nc2cc(F)c(NC(=O)c3cccc(-n4nc(C(F)(F)F)c5c4CCN(C(=O)OC(C)(C)C)C5)c3)cc2o1 [Compound 037]	< 5.70
Cc1nc2ccc(N(C)C(=O)c3cccc(-n4nc(C(F)(F)F)c5c4C(Oc4ccc(C(=O)O)cc4)CCC5)c3)cn2n1 (stereo not shown) [Compound 172]	> 6.00
CN(C(=O)c1cccc(-n2nc(C(F)(F)F)c3c2CC2CCC3N2C(=O)OC(C)(C)C)c1)c1ccc2c(c1)OCO2 (racemic) [Compound 018]	> 6.00
Cc1nc2cc(F)c(NC(=O)c3cccc(-n4nc(C(F)(F)F)c5c4CCN(C)C5)c3)cc2o1 [Compound 047]	< 5.70

Looking up CN(C(=O)c1cccc(-n2nc(C(F)(F)F)c3c2C(Oc2ccc(C(=O)O)cc2)CCC3)c1)c1cnc2c(c1)OCC2 (single isomer, unassigned) [Compound 276] , I found its pEC50 recorded as 5.70 to 6.00

Looking up CN(C(=O)c1cccc(-n2nc(C(F)(F)F)c3c2CCN(C(=O)OC(C)(C)C)C3)c1)c1ccc2c(c1)OCO2 [Compound 001] , I found its pEC50 recorded as > 6.00

Looking up CC(C)c1nn(-c2cccc(C(=O)N(C)c3ccc4c(c3)OCO4)c2)c2c1CCCC2 [Compound 133] , I found its pEC50 recorded as > 6.00

Looking up CN(C(=O)c1cccc(-n2nc(C(F)(F)F)c3c2C(Oc2ccc(C(=O)O)cc2)CCC3)c1)c1ccc2c(c1)OCC2 (single isomer, unassigned) [Compound 280] , I found its pEC50 recorded as > 6.00

* * *

Target: mutant CFTR (Homo sapiens, UniProt P13569, DEL508-508)
Construct: expressed in transfected cells
Test: Fluorescence (HS-YFP) assay for CFTR activity, corrector assay
Assay type: cell-based
Conditions: CFBE41o- and FRT cells with stable expression of mutant CFTR, read-out: activity (EC50)
Where a name gives a salt, the structure may show the parent alone.
Below, each entry is listed with its recorded EC50.

Consider the following illustrative entries.
molecule	EC50
CN(C(=O)c1cccc(-n2nc(C(F)(F)F)c3c2C(Oc2ccc(CO)cc2)CCC3)c1)c1ccc2c(c1)OC(F)(F)O2 (stereo in doubt)	< 1000 nM
CN(C(=O)c1cccc(-n2nc(C(F)(F)F)c3c2C(Oc2ncc(C(=O)O)cn2)COC3)c1)c1ccc2c(c1)OCC2 (racemic) [Compound 296]	< 1000 nM
CN(C(=O)c1cccc(-n2nc(C(F)(F)F)c3c2C(Oc2cncc(C(=O)O)c2)CCC3)c1)c1ccc2c(c1)OC(F)(F)O2 (single isomer, unassigned) [Compound 272]	1000 to 2000 nM
CN(C(=O)c1cccc(-n2nc(C(F)(F)F)c3c2C(Oc2ccc(C(=O)O)cc2)CCC3)c1)c1cncc(OC(F)F)c1 (racemic)	1000 to 2000 nM
CN(C(=O)c1cccc(-n2nc(C(F)(F)F)c3c2C(Oc2ccc(C(=O)O)cc2)CCC3)c1)c1cncc(Cl)c1 (racemic)	> 2000 nM
Cc1nc2ncc(N(C)C(=O)c3cccc(-n4nc(C(F)(F)F)c5c4C(Oc4ccc(C(=O)O)cc4)CCC5)c3)cc2o1 (stereo not drawn) [Compound 159]	1000 to 2000 nM
Cc1nc2ccc(N(C)C(=O)c3cccc(-n4nc(C(F)(F)F)c5c4CCNC5)c3)cc2o1 [Compound 030, hydrochloride]	1000 to 2000 nM
CN(C(=O)c1cccc(-n2nc(C(F)(F)F)c3c2C(Oc2ccc(C(=O)O)cc2)CCC3)c1)c1ccnc(OC(F)F)c1 (racemic) [Compound 268]	< 1000 nM

Looking up CN(C(=O)c1cccc(-n2nc(C(F)(F)F)c3c2C(Oc2ccc(C(=O)O)cc2)CCC3)c1)c1cnc(OC2CC2)nc1 (racemic) , I found its EC50 recorded as 1000 to 2000 nM

Looking up CN(C(=O)c1cccc(-n2nc(C(F)(F)F)c3c2C(Oc2cccc(C(=O)O)c2)CCC3)c1)c1ccc2c(c1)OC(F)(F)O2 (stereo not drawn) [Compound 170] , I found its EC50 recorded as < 1000 nM

Looking up CN(C(=O)c1cccc(-n2nc(C(F)(F)F)c3c2C(Oc2ccc(C(=O)O)nn2)CCC3)c1)c1ccc2c(c1)OC(F)(F)O2 (racemic) , I found its EC50 recorded as > 2000 nM

Looking up CN(C(=O)c1cccc(-n2nc(C(F)(F)F)c3c2C(Oc2ccc(C(=O)O)cc2)COC3)c1)c1ccc2c(c1)OC(F)(F)O2 (stereo not drawn) [Compound 202] , I found its EC50 recorded as < 1000 nM

Looking up CN(C(=O)c1cccc(-n2nc(C(F)(F)F)c3c2C(Oc2cncc(C(=O)O)c2)COC3)c1)c1ccc2c(c1)OC(F)(F)O2 (racemic) , I found its EC50 recorded as 1000 to 2000 nM

Looking up CN(C(=O)c1cccc(-n2nc(C(F)(F)F)c3c2C(Oc2ccc(C(=O)O)cc2)CCC3)c1)c1ccc2c(c1)S(=O)(=O)CC2 (racemic) , I found its EC50 recorded as > 2000 nM

Looking up CN(C(=O)c1cccc(-n2nc(C(F)(F)F)c3c2C(Oc2cc(C(=O)O)ccn2)CCC3)c1)c1ccc2c(c1)OC(F)(F)O2 (single isomer, unassigned) [Compound 196] , I found its EC50 recorded as < 1000 nM

Looking up Cc1cc2ncc(N(C)C(=O)c3cccc(-n4nc(C(F)(F)F)c5c4C(Oc4ccc(C(=O)O)cc4)CCC5)c3)cn2n1 (stereo not drawn) , I found its EC50 recorded as < 1000 nM

Looking up Cc1cc2ncc(N(C)C(=O)c3cccc(-n4nc(C(F)(F)F)c5c4[C@@H](Oc4ccc(C(=O)O)cc4)CCC5)c3)cn2n1 (single isomer, unassigned) , I found its EC50 recorded as 1000 to 2000 nM

Looking up CN(C(=O)c1cccc(-n2nc(C(F)(F)F)c3c2CCN(C(=O)c2ccccc2)C3)c1)c1ccc2c(c1)OCO2 , I found its EC50 recorded as < 1000 nM

Looking up Cc1nc2cc(F)c(N(C)C(=O)c3cccc(-n4nc(C(F)(F)F)c5c4CCN(C)C5)c3)cc2o1 , I found its EC50 recorded as < 1000 nM

Looking up CN(C(=O)c1cccc(-n2nc(C(F)(F)F)c3c2CCN(S(=O)(=O)c2ccccc2)C3)c1)c1ccc2c(c1)OCO2 , I found its EC50 recorded as < 1000 nM

Looking up COC(=O)c1ccc(C(=O)N2CCc3c(c(C(F)(F)F)nn3-c3cccc(C(=O)N(C)c4ccc5c(c4)OCO5)c3)C2)cc1 , I found its EC50 recorded as < 1000 nM

Looking up CN(C(=O)c1cccc(-n2nc(C(F)(F)F)c3c2C(Oc2ccc(C(=O)O)cc2)COC3)c1)c1cnc2c(c1)OCC2 (racemic) , I found its EC50 recorded as 1000 to 2000 nM

Looking up CN(C(=O)c1cccc(-n2nc(C(F)(F)F)c3c2CCCN3C(=O)OC(C)(C)C)c1)c1ccc2c(c1)OCO2 , I found its EC50 recorded as < 1000 nM

Looking up CN(C(=O)c1cccc(-n2nc(C(F)(F)F)c3c2C(Oc2cccc(C(=O)O)c2)CCC3)c1)c1ccc2c(c1)OC(F)(F)O2 (single isomer, unassigned) [Compound 190] , I found its EC50 recorded as < 1000 nM
